# assay.method.text: Particle size distribution of manufacturing batches of the compound of Formula I
# Type: physicochemical
# condition.notes: Table 3; crystalline Form I batches; listed as Batch 073, di(4-methylbenzenesulfonate)
# Source text: Manufacturing batches of(2R,3R,11bR)-3-isobutyl-9,10-dimethoxy-2,3,4,6,7,11b-hexahydro-1H-pyrido[2,1-a]isoquinolin-2-yl (S)-2-amino-3-methylbutanoate di(4-methylbenzenesulfonate) (i.e., the compound of Formula I) have been prepared in a similar manner as described herein and have the following particle size distribution characterizations, as shown in Table 3. […]
assay.metric: Particle size distribution, D50 (µm)
One number for each entry, in µm.

# return recorded Particle size distribution, D50 for entry COc1cc2c(cc1OC)[C@H]1C[C@@H](OC(=O)[C@@H](N)C(C)C)[C@H](CC(C)C)CN1CC2 [Compound of Formula I, di(4-methylbenzenesulfonate)]
14

---

# assay.method.text: Particle size distribution of manufacturing batches of the compound of Formula I
# Type: physicochemical
# condition.notes: Table 3; crystalline Form I batches; listed as Batch 085, di(4-methylbenzenesulfonate)
assay.metric: Particle size distribution, D90 (µm)
One number for each entry, in µm.

# return recorded Particle size distribution, D90 for entry COc1cc2c(cc1OC)[C@H]1C[C@@H](OC(=O)[C@@H](N)C(C)C)[C@H](CC(C)C)CN1CC2 [Compound of Formula I, di(4-methylbenzenesulfonate)]
44

---

# assay.method.text: Particle size distribution of manufacturing batches of the compound of Formula I
# Format: physicochemical
# condition.notes: Table 3; crystalline Form I batches; listed as Batch 084, di(4-methylbenzenesulfonate)
assay.metric: Particle size distribution, D90 (µm)
Give bare numbers, in µm.

# return recorded Particle size distribution, D90 for entry COc1cc2c(cc1OC)[C@H]1C[C@@H](OC(=O)[C@@H](N)C(C)C)[C@H](CC(C)C)CN1CC2 [Compound of Formula I, di(4-methylbenzenesulfonate)]
43

---

# assay.method.text: Particle size distribution of manufacturing batches of the compound of Formula I
# Type: physicochemical
# condition.notes: Table 3; crystalline Form I batches; listed as Batch 073, di(4-methylbenzenesulfonate)
assay.metric: Particle size distribution, D90 (µm)
Answers are plain numbers, in µm.

# return recorded Particle size distribution, D90 for entry COc1cc2c(cc1OC)[C@H]1C[C@@H](OC(=O)[C@@H](N)C(C)C)[C@H](CC(C)C)CN1CC2 [Compound of Formula I, di(4-methylbenzenesulfonate)]
45

---

# assay.method.text: Particle size distribution of manufacturing batches of the compound of Formula I
# Assay type: physicochemical
# condition.notes: Table 3; crystalline Form I batches; listed as Batch 086, di(4-methylbenzenesulfonate)
assay.metric: Particle size distribution, D90 (µm)
Numbers only, in µm.

# return recorded Particle size distribution, D90 for entry COc1cc2c(cc1OC)[C@H]1C[C@@H](OC(=O)[C@@H](N)C(C)C)[C@H](CC(C)C)CN1CC2 [Compound of Formula I, di(4-methylbenzenesulfonate)]
48

---

# assay.method.text: Particle size distribution of manufacturing batches of the compound of Formula I
# Assay type: physicochemical
# condition.notes: Table 3; crystalline Form I batches
assay.metric: Particle size distribution, D10 (µm)
Numbers only, in µm.

# return recorded Particle size distribution, D10 for entry COc1cc2c(cc1OC)[C@H]1C[C@@H](OC(=O)[C@@H](N)C(C)C)[C@H](CC(C)C)CN1CC2 [Compound of Formula I, di(4-methylbenzenesulfonate)]
3
